tested on: Staphylococcus aureus 447; experiment: broth micro-dilution MIC; assay type: cell-based
MEASURED_METRIC: MIC (µg/mL)
Could you give me the number in µg/mL? Just the number is fine.

Which MIC is listed for CNC(CC(C)C)C(=O)NC1C(=O)NC(CC(N)=O)C(=O)NC2C(=O)NC3C(=O)NC(C(=O)NC(C(=O)O)c4cc(O)cc(O)c4-c4cc3ccc4O)C(OC3CC(C)(N)C(O)C(C)O3)c3ccc(c(Cl)c3)Oc3cc2cc(c3OC2OC(CO)C(O)C(O)C2OC2CC(C)(NCc3ccc(-c4ccc(C)cc4)c(C)c3)C(O)C(C)O2)Oc2ccc(cc2Cl)C1O (stereo not drawn) [Compound 225] ?
1

What do you have for CNC(CC(C)C)C(=O)NC1C(=O)NC(CC(N)=O)C(=O)NC2C(=O)NC3C(=O)NC(C(=O)NC(C(=O)O)c4cc(O)cc(O)c4-c4cc3ccc4O)C(OC3CC(C)(N)C(O)C(C)O3)c3ccc(c(Cl)c3)Oc3cc2cc(c3OC2OC(CO)C(O)C(O)C2OC2CC(C)(NCCc3cccc(Oc4ccccc4)c3)C(O)C(C)O2)Oc2ccc(cc2Cl)C1O (stereo not drawn) [Compound 62] ?
0.5

What do you have for CNC(CC(C)C)C(=O)NC1C(=O)NC(CC(N)=O)C(=O)NC2C(=O)NC3C(=O)NC(C(=O)NC(C(=O)O)c4cc(O)cc(O)c4-c4cc3ccc4O)C(OC3CC(C)(N)C(O)C(C)O3)c3ccc(c(Cl)c3)Oc3cc2cc(c3OC2OC(CO)C(O)C(O)C2OC2CC(C)(NCC3=CCC(C(C)C)CC3)C(O)C(C)O2)Oc2ccc(cc2Cl)C1O (stereo not drawn) [Compound 171] ?
1
